# TARGET DESC: rKV1.1 (Rattus norvegicus)
# Construct: expressed in transfected cells; host or cells: Xenopus laevis oocytes injected with cRNA
# ASSAY PROTOCOL: Two-electrode voltage-clamp on Xenopus laevis oocytes expressing rKV1.1
# Assay type: cell-based
# CONDITION SET: concentration-response curve, percentage blocked current fitted with Hill equation; TEVC oocytes, 0 mV from −90 mV; mean ± SE, n ≥ 3; SEM; read-out: KV1.1 IC50
Positions of bridges follow the written chain, without caps; N, C: chain ends. Residues, ends and D or L forms follow the SMILES beside them.
MEASUREMENT LABEL: pIC50
Scale explanation: pIC50 corresponds to minus log10 of a concentration expressed in moles per litre.

State its pIC50: C[C@@H]1NC(=O)CNC(=O)[C@H](CCCCN)NC(=O)[C@H](CO)NC(=O)[C@@H]2CSSC[C@H](NC1=O)C(=O)N[C@@H](CCCNC(=N)N)C(=O)N1CCC[C@H]1C(=O)N[C@@H](CCCCN)C(=O)N1CCC[C@H]1C(=O)N[C@@H](CC(N)=O)C(=O)N[C@H](C(=O)NCC(=O)O)CSSC[C@H](NC(=O)[C@@H](N)CCCNC(=N)N)C(=O)N[C@@H](CCCCN)C(=O)N[C@@H]([C@@H](C)O)C(=O)N2 [Arg9Ala] (H-RCKTCSKGACRPKPNCG-OH; disulfide 2-16, 5-10) 5.07

---

# TARGET DESC: rKV1.1 (Rattus norvegicus, UniProt P10499)
# Construct: expressed in transfected cells; host or cells: Xenopus laevis oocytes injected with cRNA
# Sequence (P10499 whole entry): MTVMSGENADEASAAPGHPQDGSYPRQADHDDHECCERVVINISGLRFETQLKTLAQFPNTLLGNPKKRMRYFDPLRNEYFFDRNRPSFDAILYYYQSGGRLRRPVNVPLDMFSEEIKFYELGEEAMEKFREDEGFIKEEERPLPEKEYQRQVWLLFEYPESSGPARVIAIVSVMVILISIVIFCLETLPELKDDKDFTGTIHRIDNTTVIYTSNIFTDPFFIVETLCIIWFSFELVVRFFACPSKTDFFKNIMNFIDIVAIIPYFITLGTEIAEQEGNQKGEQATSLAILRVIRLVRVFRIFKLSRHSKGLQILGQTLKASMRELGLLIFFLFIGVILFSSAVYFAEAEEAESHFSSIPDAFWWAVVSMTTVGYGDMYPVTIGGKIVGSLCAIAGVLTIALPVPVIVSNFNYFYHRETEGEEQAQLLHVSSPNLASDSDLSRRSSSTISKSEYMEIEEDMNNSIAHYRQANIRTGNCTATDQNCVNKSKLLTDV
# ASSAY PROTOCOL: Two-electrode voltage-clamp on Xenopus laevis oocytes expressing rKV1.1
# Assay type: cell-based
# CONDITION SET: external TEA in bath solution, concentration stated as IC50; read-out: TEA IC50 on KV1.1
MEASUREMENT LABEL: IC50 (µM)
Record the value in µM, omitting the unit from your answer.

State its IC50: CC[N+](CC)(CC)CC [TEA, tetraethylammonium, reference compound] 200

---

# TARGET DESC: rKV1.1 (Rattus norvegicus)
# Construct: expressed in transfected cells; host or cells: Xenopus laevis oocytes injected with cRNA
# ASSAY PROTOCOL: Two-electrode voltage-clamp on Xenopus laevis oocytes expressing rKV1.1
# Assay type: cell-based
# CONDITION SET: concentration-response curve, percentage blocked current fitted with Hill equation; TEVC oocytes, 0 mV from −90 mV; mean ± SE, n ≥ 3; SEM; read-out: KV1.1 IC50
# Procedure: […] Two-electrode voltage-clamp recordings were performed at room temperature (18–22 °C) using a Geneclamp 500 amplifier (Molecular Devices, Sunnyvale, CA, USA) controlled by a pClamp data acquisition system (Axon Instruments, Union City, CA, USA). […] Whole-cell currents from oocytes were recorded 1–3 days after injection. […]
Positions of bridges follow the written chain, without caps; N, C: chain ends. Residues, ends and D or L forms follow the SMILES beside them.
// returns false (0) unless IC50 is strictly below 5 µM, in which case true (1)

{"COMPOUND": "C[C@H](N)C(=O)N[C@H]1CSSC[C@@H](C(=O)NCC(=O)O)NC(=O)[C@H](CC(N)=O)NC(=O)[C@@H]2CCCN2C(=O)[C@H](CCCCN)NC(=O)[C@@H]2CCCN2C(=O)[C@H](CCCNC(=N)N)NC(=O)[C@@H]2CSSC[C@H](NC(=O)[C@H]([C@@H](C)O)NC(=O)[C@H](CCCCN)NC1=O)C(=O)N[C@@H](CO)C(=O)N[C@@H](CCCCN)C(=O)NCC(=O)N[C@@H](CCCNC(=N)N)C(=O)N2 [Arg1Ala] (H-ACKTCSKGRCRPKPNCG-OH; disulfide 2-16, 5-10)", "ANSWER LABEL": "true (1)"}
{"COMPOUND": "C[C@@H]1NC(=O)[C@@H]2CSSC[C@H](NC(=O)[C@H]([C@@H](C)O)NC(=O)[C@H](CCCCN)NC(=O)[C@@H](NC(=O)[C@@H](N)CCCNC(=N)N)CSSC[C@@H](C(=O)NCC(=O)O)NC(=O)[C@H](CC(N)=O)NC(=O)[C@@H]3CCCN3C(=O)[C@H](CCCCN)NC(=O)[C@@H]3CCCN3C1=O)C(=O)N[C@@H](CO)C(=O)N[C@@H](CCCCN)C(=O)NCC(=O)N[C@@H](CCCNC(=N)N)C(=O)N2 [Arg11Ala] (H-RCKTCSKGRCAPKPNCG-OH; disulfide 2-16, 5-10)", "ANSWER LABEL": "false (0)"}
{"COMPOUND": "C[C@@H]1NC(=O)[C@H](CO)NC(=O)[C@@H]2CSSC[C@H](NC(=O)[C@H](CCCNC(=N)N)NC(=O)CNC1=O)C(=O)N[C@@H](CCCNC(=N)N)C(=O)N1CCC[C@H]1C(=O)N[C@@H](CCCCN)C(=O)N1CCC[C@H]1C(=O)N[C@@H](CC(N)=O)C(=O)N[C@H](C(=O)NCC(=O)O)CSSC[C@H](NC(=O)[C@@H](N)CCCNC(=N)N)C(=O)N[C@@H](CCCCN)C(=O)N[C@@H]([C@@H](C)O)C(=O)N2 [Lys7Ala] (H-RCKTCSAGRCRPKPNCG-OH; disulfide 2-16, 5-10)", "ANSWER LABEL": "false (0)"}
{"COMPOUND": "C[C@@H]1NC(=O)[C@@H](NC(=O)[C@@H](N)CCCNC(=N)N)CSSC[C@@H](C(=O)NCC(=O)O)NC(=O)[C@H](CC(N)=O)NC(=O)[C@@H]2CCCN2C(=O)[C@H](CCCCN)NC(=O)[C@@H]2CCCN2C(=O)[C@H](CCCNC(=N)N)NC(=O)[C@@H]2CSSC[C@H](NC(=O)[C@H]([C@@H](C)O)NC1=O)C(=O)N[C@@H](CO)C(=O)N[C@@H](CCCCN)C(=O)NCC(=O)N[C@@H](CCCNC(=N)N)C(=O)N2 [Lys3Ala] (H-RCATCSKGRCRPKPNCG-OH; disulfide 2-16, 5-10)", "ANSWER LABEL": "false (0)"}

# strict comparison: is reported IC50 < 5 µM? input = C[C@@H]1NC(=O)[C@@H]2CCCN2C(=O)[C@H](CCCNC(=N)N)NC(=O)[C@@H]2CSSC[C@H](NC(=O)[C@H]([C@@H](C)O)NC(=O)[C@H](CCCCN)NC(=O)[C@@H](NC(=O)[C@@H](N)CCCNC(=N)N)CSSC[C@@H](C(=O)NCC(=O)O)NC(=O)[C@H](CC(N)=O)NC(=O)[C@@H]3CCCN3C1=O)C(=O)N[C@@H](CO)C(=O)N[C@@H](CCCCN)C(=O)NCC(=O)N[C@@H](CCCNC(=N)N)C(=O)N2 [Lys13Ala] (H-RCKTCSKGRCRPAPNCG-OH; disulfide 2-16, 5-10) true (1)

# strict comparison: is reported IC50 < 5 µM? input = C[C@@H](O)[C@@H]1NC(=O)[C@H](CCCCN)NC(=O)[C@@H](NC(=O)[C@@H](N)CCCNC(=N)N)CSSC[C@@H](C(=O)NCC(=O)O)NC(=O)[C@H](CC(N)=O)NC(=O)[C@@H]2CCCN2C(=O)[C@H](CCCCN)NC(=O)[C@@H]2CCCN2C(=O)[C@H](CCCNC(=N)N)NC(=O)[C@@H]2CSSC[C@H](NC1=O)C(=O)N[C@@H](CO)C(=O)N[C@@H](CCCCN)C(=O)NCC(=O)N[C@@H](CCCNC(=N)N)C(=O)N2 [AbeTx1] (H-RCKTCSKGRCRPKPNCG-OH; disulfide 2-16, 5-10) true (1)

---

# TARGET DESC: rKV1.6 (Rattus norvegicus, UniProt P17659)
# Construct: expressed in transfected cells; host or cells: Xenopus laevis oocytes injected with cRNA
# Sequence (P17659 whole entry): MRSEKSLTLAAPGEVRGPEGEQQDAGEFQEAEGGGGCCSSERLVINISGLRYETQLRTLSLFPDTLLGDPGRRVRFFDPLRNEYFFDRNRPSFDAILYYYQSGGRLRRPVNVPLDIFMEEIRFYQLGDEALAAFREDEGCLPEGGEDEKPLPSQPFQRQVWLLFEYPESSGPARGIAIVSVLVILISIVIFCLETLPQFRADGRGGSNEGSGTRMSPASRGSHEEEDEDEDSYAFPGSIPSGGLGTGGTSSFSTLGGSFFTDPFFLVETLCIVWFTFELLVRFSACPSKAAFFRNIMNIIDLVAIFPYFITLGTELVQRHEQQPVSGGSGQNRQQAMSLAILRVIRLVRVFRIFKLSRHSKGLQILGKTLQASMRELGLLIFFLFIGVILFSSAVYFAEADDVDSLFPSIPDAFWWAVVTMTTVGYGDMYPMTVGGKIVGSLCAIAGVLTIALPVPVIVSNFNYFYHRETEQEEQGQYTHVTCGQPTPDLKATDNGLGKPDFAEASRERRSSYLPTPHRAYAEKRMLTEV
# ASSAY PROTOCOL: Two-electrode voltage-clamp on Xenopus laevis oocytes expressing rKV1.6
# Format: cell-based
# CONDITION SET: concentration-response curve, percentage blocked current fitted with Hill equation; TEVC oocytes, 0 mV from −90 mV; mean ± SE, n ≥ 3; SEM; read-out: KV1.6 IC50
Positions of bridges follow the written chain, without caps; N, C: chain ends. Residues, ends and D or L forms follow the SMILES beside them.
MEASUREMENT LABEL: IC50 (µM)
Record the value in µM, omitting the unit from your answer.

Answered cases to consult:
{"COMPOUND": "C[C@H](N)C(=O)N[C@H]1CSSC[C@@H](C(=O)NCC(=O)O)NC(=O)[C@H](CC(N)=O)NC(=O)[C@@H]2CCCN2C(=O)[C@H](CCCCN)NC(=O)[C@@H]2CCCN2C(=O)[C@H](CCCNC(=N)N)NC(=O)[C@@H]2CSSC[C@H](NC(=O)[C@H]([C@@H](C)O)NC(=O)[C@H](CCCCN)NC1=O)C(=O)N[C@@H](CO)C(=O)N[C@@H](CCCCN)C(=O)NCC(=O)N[C@@H](CCCNC(=N)N)C(=O)N2 [Arg1Ala] (H-ACKTCSKGRCRPKPNCG-OH; disulfide 2-16, 5-10)", "TARGET DESC": "rKV1.6 (Rattus norvegicus, UniProt P17659)", "U": "µM", "IC50": 3.53}
{"COMPOUND": "C[C@@H]1NC(=O)[C@@H](NC(=O)[C@@H](N)CCCNC(=N)N)CSSC[C@@H](C(=O)NCC(=O)O)NC(=O)[C@H](CC(N)=O)NC(=O)[C@@H]2CCCN2C(=O)[C@H](CCCCN)NC(=O)[C@@H]2CCCN2C(=O)[C@H](CCCNC(=N)N)NC(=O)[C@@H]2CSSC[C@H](NC(=O)[C@H]([C@@H](C)O)NC1=O)C(=O)N[C@@H](CO)C(=O)N[C@@H](CCCCN)C(=O)NCC(=O)N[C@@H](CCCNC(=N)N)C(=O)N2 [Lys3Ala] (H-RCATCSKGRCRPKPNCG-OH; disulfide 2-16, 5-10)", "TARGET DESC": "rKV1.6 (Rattus norvegicus, UniProt P17659)", "U": "µM", "IC50": 18.9}
{"COMPOUND": "C[C@@H]1NC(=O)[C@H](CO)NC(=O)[C@@H]2CSSC[C@H](NC(=O)[C@H](CCCNC(=N)N)NC(=O)CNC1=O)C(=O)N[C@@H](CCCNC(=N)N)C(=O)N1CCC[C@H]1C(=O)N[C@@H](CCCCN)C(=O)N1CCC[C@H]1C(=O)N[C@@H](CC(N)=O)C(=O)N[C@H](C(=O)NCC(=O)O)CSSC[C@H](NC(=O)[C@@H](N)CCCNC(=N)N)C(=O)N[C@@H](CCCCN)C(=O)N[C@@H]([C@@H](C)O)C(=O)N2 [Lys7Ala] (H-RCKTCSAGRCRPKPNCG-OH; disulfide 2-16, 5-10)", "TARGET DESC": "rKV1.6 (Rattus norvegicus, UniProt P17659)", "U": "µM", "IC50": 0.852}
{"COMPOUND": "C[C@@H]1NC(=O)[C@@H]2CCCN2C(=O)[C@H](CCCNC(=N)N)NC(=O)[C@@H]2CSSC[C@H](NC(=O)[C@H]([C@@H](C)O)NC(=O)[C@H](CCCCN)NC(=O)[C@@H](NC(=O)[C@@H](N)CCCNC(=N)N)CSSC[C@@H](C(=O)NCC(=O)O)NC(=O)[C@H](CC(N)=O)NC(=O)[C@@H]3CCCN3C1=O)C(=O)N[C@@H](CO)C(=O)N[C@@H](CCCCN)C(=O)NCC(=O)N[C@@H](CCCNC(=N)N)C(=O)N2 [Lys13Ala] (H-RCKTCSKGRCRPAPNCG-OH; disulfide 2-16, 5-10)", "TARGET DESC": "rKV1.6 (Rattus norvegicus, UniProt P17659)", "U": "µM", "IC50": 1.08}
{"COMPOUND": "C[C@@H]1NC(=O)CNC(=O)[C@H](CCCCN)NC(=O)[C@H](CO)NC(=O)[C@@H]2CSSC[C@H](NC1=O)C(=O)N[C@@H](CCCNC(=N)N)C(=O)N1CCC[C@H]1C(=O)N[C@@H](CCCCN)C(=O)N1CCC[C@H]1C(=O)N[C@@H](CC(N)=O)C(=O)N[C@H](C(=O)NCC(=O)O)CSSC[C@H](NC(=O)[C@@H](N)CCCNC(=N)N)C(=O)N[C@@H](CCCCN)C(=O)N[C@@H]([C@@H](C)O)C(=O)N2 [Arg9Ala] (H-RCKTCSKGACRPKPNCG-OH; disulfide 2-16, 5-10)", "TARGET DESC": "rKV1.6 (Rattus norvegicus, UniProt P17659)", "U": "µM", "IC50": 2.44}

Then this compound:
State its IC50: C[C@@H](O)[C@@H]1NC(=O)[C@H](CCCCN)NC(=O)[C@@H](NC(=O)[C@@H](N)CCCNC(=N)N)CSSC[C@@H](C(=O)NCC(=O)O)NC(=O)[C@H](CC(N)=O)NC(=O)[C@@H]2CCCN2C(=O)[C@H](CCCCN)NC(=O)[C@@H]2CCCN2C(=O)[C@H](CCCNC(=N)N)NC(=O)[C@@H]2CSSC[C@H](NC1=O)C(=O)N[C@@H](CO)C(=O)N[C@@H](CCCCN)C(=O)NCC(=O)N[C@@H](CCCNC(=N)N)C(=O)N2 [AbeTx1] (H-RCKTCSKGRCRPKPNCG-OH; disulfide 2-16, 5-10) 0.116
